System: cynomolgus monkeys
Assay: 4-week safety study: serum biochemistry
Assay type: in vivo
Settings: Female, 450 mg/kg, d 56
Readout name: CREA (µM)

>  <Molecule>
COC(=O)NCCCn1nc([C@@H](C)N(C(=O)[C@H]2CNCCO2)C2CC2)c2ccc(C)nc21 [compound of Formula I]

>  <Measured number>
57

$$$$

----------
Assay: Plasma pharmacokinetics and bioavailability after intravenous and oral administration
Format: in vivo, cynomolgus monkeys
Conditions: both sexes, cynomolgus monkey, plasma; Monkey, 1 mg/kg po

>  <Structure as smiles>
COC(=O)NCCCn1nc([C@@H](C)N(C(=O)[C@H]2CNCCO2)C2CC2)c2ccc(C)nc21

>  <Unit symbol>
mL/min/kg

>  <CL/F>
1410

$$$$

----------
Assay: Plasma pharmacokinetics and bioavailability after intravenous and oral administration
Assay type: in vivo, cynomolgus monkeys
Conditions: both sexes, cynomolgus, cynomolgus monkey, plasma; Monkey, 9 mg/kg po

>  <Structure as smiles>
COC(=O)NCCCn1nc([C@@H](C)N(C(=O)[C@H]2CNCCO2)C2CC2)c2ccc(C)nc21

>  <CL/F>
353 mL/min/kg

$$$$

----------
Tested on: cynomolgus monkeys
Test: 4-week safety study: serum biochemistry
Type: in vivo
Conditions: Female, 20 mg/kg, d0
Readout name: CREA (µM)

>  <Structure as smiles>
COC(=O)NCCCn1nc([C@@H](C)N(C(=O)[C@H]2CNCCO2)C2CC2)c2ccc(C)nc21

>  <Readout name>
CREA

>  <Measured number>
59

$$$$

----------
Assay: Plasma pharmacokinetics and bioavailability after intravenous and oral administration
Type: in vivo, cynomolgus monkeys
Conditions: both sexes, cynomolgus monkey, plasma; Monkey, 1 mg/kg po

>  <Structure as smiles>
COC(=O)NCCCn1nc([C@@H](C)N(C(=O)[C@H]2CNCCO2)C2CC2)c2ccc(C)nc21

>  <Cmax>
3.99 ng/mL

$$$$

----------
System: cynomolgus monkeys
Assay: 4-week safety study: serum biochemistry
Format: in vivo
Conditions: Female, 20 mg/kg, d 56
Readout name: CREA (µM)

>  <Structure as smiles>
COC(=O)NCCCn1nc([C@@H](C)N(C(=O)[C@H]2CNCCO2)C2CC2)c2ccc(C)nc21

>  <Assayed target>
cynomolgus monkeys

>  <Unit symbol>
µM

>  <Measured number>
51.5

$$$$

----------
System: cynomolgus monkeys
Assay: 4-week safety study: serum biochemistry
Assay type: in vivo
Conditions: Female, 20 mg/kg, d26
Readout name: CREA (µM)

>  <Structure as smiles>
COC(=O)NCCCn1nc([C@@H](C)N(C(=O)[C@H]2CNCCO2)C2CC2)c2ccc(C)nc21

>  <Measured number>
51.2

$$$$

----------
Tested on: cynomolgus monkeys
Assay: 4-week safety study: serum biochemistry
Format: in vivo
Details: Male, 450 mg/kg, d 56

>  <Structure as smiles>
COC(=O)NCCCn1nc([C@@H](C)N(C(=O)[C@H]2CNCCO2)C2CC2)c2ccc(C)nc21

>  <Unit symbol>
µM

>  <CREA>
66.5

$$$$

----------
System: cynomolgus monkeys
Assay: 4-week safety study: serum biochemistry
Format: in vivo
Details: Male, 100 mg/kg, d 56

>  <Structure as smiles>
COC(=O)NCCCn1nc([C@@H](C)N(C(=O)[C@H]2CNCCO2)C2CC2)c2ccc(C)nc21

>  <CREA (µM)>
58.5

$$$$
